Reference source for all entries: patent US20080107625A1

- Tested on: HCV replicon in HUH-7 cells
- Method: HCV replicon FRET assay
- Assay type: cell-based, HCV strain 1b
- Experimental conditions: Hepatitis C virus, 96 h, 4 days
Reported property: EC50

- Compound: "CC(C)(C)OC(=O)N[C@H]1CN(C2CC2)CCC/C=C\\C2C[C@@]2(C(=O)NS(=O)(=O)C2CC2)NC(=O)[C@@H]2C[C@@H](Oc3ccccn3)CN2C1=O (stereo partly shown) [Compound 1]"
  Reported result: "1090 nM"

* * *

- System under test: human liver cathepsin B (Homo sapiens, UniProt P07858)
pIC50: −log10 of the molar value.
Reported property: pIC50

- Compound: "CC(C)(C)OC(=O)N[C@H]1CN(C2CC2)CCC/C=C\\C2C[C@@]2(C(=O)NS(=O)(=O)C2CC2)NC(=O)[C@@H]2C[C@@H](Oc3ccccn3)CN2C1=O (stereo partly shown)"
  Reported result: "< 4.00"

* * *

- System under test: porcine pancreatic elastase (PPE) (Sus scrofa, UniProt P00772)
- Sequence (P00772 27-266): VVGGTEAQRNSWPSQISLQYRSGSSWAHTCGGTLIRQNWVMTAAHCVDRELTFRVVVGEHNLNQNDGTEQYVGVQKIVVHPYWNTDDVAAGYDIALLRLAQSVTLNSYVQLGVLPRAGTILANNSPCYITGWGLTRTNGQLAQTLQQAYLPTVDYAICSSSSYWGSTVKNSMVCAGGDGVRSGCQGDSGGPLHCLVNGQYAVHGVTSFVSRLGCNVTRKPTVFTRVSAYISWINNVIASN

- Molecule: "CC(C)(C)OC(=O)N[C@H]1CN(C2CC2)CCC/C=C\\C2C[C@@]2(C(=O)NS(=O)(=O)C2CC2)NC(=O)[C@@H]2C[C@@H](Oc3ccccn3)CN2C1=O (stereo partly shown)"
  IC50: "> 100 µM"

* * *

- System under test: human neutrophil elastase (HNE) (Homo sapiens, UniProt P08246)
- Construct: purchased Sigma or EMDbiosciences
- Sequence (P08246 30-267): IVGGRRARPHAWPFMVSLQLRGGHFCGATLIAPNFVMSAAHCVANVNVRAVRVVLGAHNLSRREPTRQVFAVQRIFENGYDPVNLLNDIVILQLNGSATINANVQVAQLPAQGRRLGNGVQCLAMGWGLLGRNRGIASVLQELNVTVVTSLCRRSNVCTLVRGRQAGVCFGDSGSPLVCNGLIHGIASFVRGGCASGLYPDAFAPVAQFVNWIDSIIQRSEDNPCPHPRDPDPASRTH
- Method: Specificity assay, neutrophil elastase
- Type: biochemical
- Experimental conditions: read-out: HLE activity in the specificity assay (IC50)
Reported property: IC50

- Compound: "CC(C)(C)OC(=O)N[C@H]1CN(C2CC2)CCC/C=C\\C2C[C@@]2(C(=O)NS(=O)(=O)C2CC2)NC(=O)[C@@H]2C[C@@H](Oc3ccccn3)CN2C1=O (stereo partly shown)"
  System under test: "human neutrophil elastase (HNE) (Homo sapiens, UniProt P08246)"
  Reported result: "> 100 µM"
